Test: Single dose PK in healthy subjects (Cohorts 1, 2, S1 and S2), plasma
Assay type: in vivo, human
Details: human, plasma, iv, 134.4 mg, 134.4 mg single IV infusion, healthy subjects; read-out: CL Median (converted)
Observation type: clearance

clearance in this record for COC(=O)N1CCC[C@H](NS(C)(=O)=O)[C@@H]1CO[C@H]1CC[C@@H](c2ccccc2)CC1 : 839 mL/min

---

Assay: Single dose PK in patients with narcolepsy (Cohorts 5, 6 and 7), plasma
Type: in vivo, human
Details: human, plasma, intravenous, 11.2 mg, Cmpd A 11.2 mg; Mean; Cohort 5, 6, 7
Observation type: Cmax (ng/mL)
Kindly answer with a numeric value in ng/mL, unit omitted.

Please fill in: Cmax reported for COC(=O)N1CCC[C@H](NS(C)(=O)=O)[C@@H]1CO[C@H]1CC[C@@H](c2ccccc2)CC1 = 22
